# Method Description: inhibitors of TNFa-induced NFkB p65 translocation, primary screen, imaging, HUVEC, MLSMR starter and 10KST1 sets (AID 438);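 note: compound added about 3h40 before a 20 min TNFalpha stimulation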
# Reported Conditions: HUVEC TNFa-induced p65 nuclear translocation; measured here: nuclei count (cytotoxicity indicator), at 2.08 µM

| Compound | cell count |
| --- | --- |
| CCCCN(CCCC)CCCNC(=O)CC1Oc2ccc(C)cc2NC1=O (configuration not stated) | 618 |
| CCC(=O)N1CCc2cc(S(=O)(=O)CCC(=O)Nc3c(C)n(C)n(-c4ccccc4)c3=O)ccc21 | 598 |
| CCCCOc1ccc(-c2nnn(C(C)(C)C(=O)OC)n2)cc1 | 602 |
| CCOC(=O)C1C(=O)OC(C)(C)C1C(C)C(=O)c1ccc(OC)cc1 (configuration not stated) | 605 |
| O=S(=O)(NCC1CCCO1)c1cccc(C(F)(F)F)c1 (configuration not stated) | 611 |
| CCCc1ccccc1OCCNC(C)=O | 585 |
| c1ccc(-c2nc3cnccn3c2Nc2ccc3c(c2)OCCO3)cc1 | 606 |

* * *

# Method Description: reduction of polyQ htt aggregates in cells – imaging, exon1htt(103Q)mCFP cells, high-content imaging, primary screen (AID 483);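 note: compound exposure lasted 3 days before fixation; percent of the per-plate median nuclei count of sample wells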
# Reported Conditions: exon1htt(103Q)mCFP cell line, aggregate imaging, at 2 µM; measured here: cell count, toxicity
Below is a list of entries, each paired with its recorded nuclei count value.

| Compound | nuclei count (%) |
| --- | --- |
| Cc1nc(/N=C\N(C)C)sc1C(=O)Nc1ccccc1 | 113 |
| COc1ccc(-n2nc3cc(C)c(N)c(Br)c3n2)cc1 | 59.9 |
| CC12CN3CC(C)(CN(C1)C3c1ccc(Br)cc1)C2 (stereo not given) | 97.5 |
| CC(=O)N1CCN(S(=O)(=O)c2ccc(S(=O)(=O)NC3CC3)cc2)CC1 | 99.7 |
| CCCc1cc(C(=O)Nc2ccccc2C(=O)OC)no1 | 92.4 |
| O=C(Cc1cccs1)N(c1ccccc1)C1C=CS(=O)(=O)C1 (stereo not given) | 110 |
| CNC(=O)OC(C)CNS(=O)(=O)c1ccc(C)cc1 (stereo not given) | 103 |
| CCOC(=O)N1CCN(C(=O)C2CC(=O)N(Cc3ccc(OC)cc3)C2)CC1 (stereo not given) | 112 |
| Cc1ccc(NC(=O)COc2nc(C)cs2)cc1 | 100 |
| CCCOC(=O)C1[C@H]2C(=O)N(CCCOC)C[C@]23C=C[C@H]1O3 (stereo not given in full) | 112 |
| COC1CCCCC1NS(=O)(=O)c1ccccc1 (stereo not given) | 113 |
| CC1CC(C)CN(c2nc3c(c(=O)[nH]c(=O)n3C)n2CCCSc2nc3ccccc3s2)C1 (stereo not given) | 97.2 |
| O=C(CN1CCSCC1)N1CCc2[nH]c3ccc(Br)cc3c2C1 | 99.4 |
| CCOC(=O)n1c(=O)oc2cc(S(=O)(=O)N3CCCCC3)ccc21 | 103 |
| NS(=O)(=O)c1ccc(CCNC(=O)CCC2COc3ccccc3O2)cc1 (stereo not given) | 98.4 |
| Cc1ccc(-c2nnn(CC(=O)N(CC(=O)NC3CCCCC3)c3cnc4ccccc4c3)n2)o1 | 94.4 |
| O=S1(=O)CCN2C(=N1)SC1=C2CCN(Cc2ccccc2)C1 | 91.4 |
| Cn1c(-c2ccccc2)cnc1SCc1nc2ccccc2c(=O)[nH]1 | 119 |
| Cc1nc2sc(C(c3cccc(F)c3)N3CCC(C)CC3)c(O)n2n1 (stereo not given) | 109 |
| COCCNC(=O)C(c1ccc(C)o1)N(C(=O)c1snc(C(N)=O)c1N)c1ccc(C)cc1 (stereo not given) | 94 |
| CCCCN1CN(S(=O)(=O)c2cccs2)c2nc3ccccc3nc21 | 83.1 |
| CCCCNS(=O)(=O)c1ccc(OC)c2ncccc12 | 115 |
| COc1ccc(COC(=O)c2n[nH]c3ccccc23)cc1F | 125 |
| COC(=O)c1[nH]c2cc(OC)ccc2c1NC(=O)CCN1CCCCC1 | 70.3 |
| CC(=O)Nc1nnc(SCC(=O)NCC2CCCO2)s1 (stereo not given) | 102 |
| CCOC(=O)c1oc2ccccc2c1CSc1nnnn1-c1ccc(OC)cc1 | 95.4 |
| CC(=O)Nc1ccc(S(=O)(=O)N2CCN(c3cc(C)nc4ccccc34)CC2)cc1 | 123 |
| CN(CC(=O)Nc1cccnc1)S(=O)(=O)c1cc(Cl)ccc1Cl | 101 |
| c1cnc(NCCNc2ncccn2)nc1 | 132 |
| CCS(=O)(=O)Nc1ccc(C(=O)CC2(O)C(=O)Nc3ccccc32)cc1 (stereo not given) | 110 |
| CCOC(=O)C1CCN(S(=O)(=O)c2cc(Cl)c(C)cc2OC)CC1 | 109 |
| NS(=O)(=O)c1ccc(NC(=O)N[C@@H](Cc2ccccc2)C(=O)O)cc1 | 104 |
| CC(=O)NCc1cccc(CNC(C)=O)n1 | 109 |
| Cc1ccc2occ(CN3CCN(c4ccccc4)CC3)c(=O)c2c1 | 81.9 |
| Cc1c(NS(=O)(=O)c2ccc3c(c2)c(=O)n(C)c(=O)n3C)c(=O)n(-c2ccccc2)n1C | 124 |
| COc1ccc(NS(=O)(=O)c2coc(C(N)=O)c2)cc1Cl | 86.4 |
| CN1CCN(c2nc3c(c(=O)[nH]c(=O)n3C)n2CCSc2nc3ccccc3s2)CC1 | 106 |
| O=C(CSc1nnc(Cc2ccccc2)n1C1CCCCC1)N1CCOCC1 | 104 |
| CC(=O)N1C(=O)N(C)C2C1N(C(C)=O)C(=O)N2C (stereo not given) | 96.4 |
| CCOc1ccccc1C(=O)NCCCn1ccnc1 | 96.2 |

* * *

Below is a list of entries, each paired with its recorded fluorescence slope value.
# Target Under Test: Voltage-gated potassium channel subunit beta-2 (Rattus norvegicus) (UniProt P62483)
# Sequence (P62483 whole entry, looked up): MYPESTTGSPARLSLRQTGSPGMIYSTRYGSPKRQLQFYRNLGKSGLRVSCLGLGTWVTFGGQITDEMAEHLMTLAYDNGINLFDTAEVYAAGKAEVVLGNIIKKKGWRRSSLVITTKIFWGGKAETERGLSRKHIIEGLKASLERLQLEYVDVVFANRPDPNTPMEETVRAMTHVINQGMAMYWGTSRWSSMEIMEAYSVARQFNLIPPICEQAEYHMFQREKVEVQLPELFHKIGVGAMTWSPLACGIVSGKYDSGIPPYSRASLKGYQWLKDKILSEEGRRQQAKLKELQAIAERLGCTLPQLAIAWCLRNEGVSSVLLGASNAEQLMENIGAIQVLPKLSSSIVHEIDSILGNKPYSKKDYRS
# Method Description: inhibitors of rat Kvbeta2 reductase activity – biochemical, NADPH fluorescence, primary screen (AID 622);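 note: slope of raw intensity against log time taken from 70 to 1610 s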
# Reported Conditions: recombinant KvBeta, 4-cyanobenzaldehyde reduction, at 10 µM, stronger effect = higher value

| Compound | fluorescence slope |
| --- | --- |
| COC(=O)Cn1c2ccccc2c2nc(C)sc21 | -0.439 |
| Cc1ccc(-c2nn[nH]n2)cc1 | -0.474 |
| Cc1ccc(NC(=O)CS(=O)CC(=O)NCC2CCCO2)cc1 (stereo unspecified) | -0.309 |
| CCOC(=O)N1CCC(NC(=O)C2CCCN(C(=O)c3cc4sccc4n3C)C2)CC1 (stereo unspecified) | -0.556 |
| O=C(NC1CCCCC1)c1nc2c(nnn2Cc2ccccc2Cl)c(=O)[nH]1 | -0.525 |
| c1ccc(-c2nc3cnccn3c2Nc2ccc3c(c2)OCCO3)cc1 | -0.202 |

* * *

Below is a list of entries, each paired with its recorded fluorescence slope value.
# Target Under Test: Voltage-gated potassium channel subunit beta-2 (Rattus norvegicus) (UniProt P62483)
# Method Description: inhibitors of rat Kvbeta2 reductase activity – biochemical, NADPH fluorescence, primary screen (AID 622);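 note: slope of raw intensity against log time taken from 70 to 1610 s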
# Reported Conditions: recombinant KvBeta, 4-cyanobenzaldehyde reduction, at 10 µM, stronger effect = higher value

| Molecule | Target Under Test | fluorescence slope |
| --- | --- | --- |
| CCCN(CCC)CCNS(=O)(=O)c1ccc2c(c1)oc(=O)n2C | Voltage-gated potassium channel subunit beta-2 (Rattus norvegicus) (UniProt P62483) | -0.427 |
| O=C(C1CCCO1)N1CCN(S(=O)(=O)c2ccccc2)CC1 (configuration not stated) | Voltage-gated potassium channel subunit beta-2 (Rattus norvegicus) (UniProt P62483) | -0.439 |
| CCC(C)OC(=O)C1=C(C)NC2=C(C(=O)C(C(=O)OC)C(C)C2)C1c1ccc(N(C)C)cc1 (configuration not stated) | Voltage-gated potassium channel subunit beta-2 (Rattus norvegicus) (UniProt P62483) | -0.579 |
| Cc1nnc2sc(-c3cccc(NC(=O)c4cccnc4)c3)nn12 | Voltage-gated potassium channel subunit beta-2 (Rattus norvegicus) (UniProt P62483) | -0.346 |
| Cc1cc(NC(c2cccnc2)c2c(C)[nH]c3ccccc23)no1 (configuration not stated) | Voltage-gated potassium channel subunit beta-2 (Rattus norvegicus) (UniProt P62483) | -0.596 |
| Cc1ccc2c(c1)sc1ncc(NC(=O)c3ccccc3)c(=O)n12 | Voltage-gated potassium channel subunit beta-2 (Rattus norvegicus) (UniProt P62483) | -0.58 |
| CCSCc1nnc(SCC(=O)Nc2cccc(SC)c2)n1C | Voltage-gated potassium channel subunit beta-2 (Rattus norvegicus) (UniProt P62483) | -0.452 |
| COc1ccc(-n2nc3cc(C)c(N)c(Br)c3n2)cc1 | Voltage-gated potassium channel subunit beta-2 (Rattus norvegicus) (UniProt P62483) | -0.411 |
| COC(=O)C1=C(N)Oc2cc(C)n(Cc3ccncc3)c(=O)c2C1c1cccnc1 (configuration not stated) | Voltage-gated potassium channel subunit beta-2 (Rattus norvegicus) (UniProt P62483) | -0.479 |
| COc1ccc(S(=O)(=O)Nc2ccccc2SC)cc1C | Voltage-gated potassium channel subunit beta-2 (Rattus norvegicus) (UniProt P62483) | -0.346 |
| COc1ccc(CC(=O)Nc2ccc(OC)c(NC(=O)c3ccco3)c2)cc1 | Voltage-gated potassium channel subunit beta-2 (Rattus norvegicus) (UniProt P62483) | -0.417 |
| Cc1ccc(S(=O)(=O)N2CCC(C(=O)N3CCN(Cc4ccccc4)CC3)CC2)cc1 | Voltage-gated potassium channel subunit beta-2 (Rattus norvegicus) (UniProt P62483) | -0.518 |
| Cc1cc(C(F)F)n2nc(C(=O)Nc3ccc(S(=O)(=O)N4CCCCCC4)cc3)nc2n1 | Voltage-gated potassium channel subunit beta-2 (Rattus norvegicus) (UniProt P62483) | -0.566 |
| CCOC(=O)c1sc(NS(=O)(=O)c2ccc(NC(C)=O)cc2)nc1C | Voltage-gated potassium channel subunit beta-2 (Rattus norvegicus) (UniProt P62483) | -0.448 |
| CC(=O)NCCc1ccc(S(=O)(=O)NCc2ccc3c(c2)OCO3)cc1 | Voltage-gated potassium channel subunit beta-2 (Rattus norvegicus) (UniProt P62483) | -0.356 |
| Cc1cccc(NCc2ccccc2O)c1 | Voltage-gated potassium channel subunit beta-2 (Rattus norvegicus) (UniProt P62483) | -0.55 |
| COc1ccccc1N1CCN(S(=O)(=O)CC23CCC(CC2=O)C3(C)C)CC1 (configuration not stated) | Voltage-gated potassium channel subunit beta-2 (Rattus norvegicus) (UniProt P62483) | -0.452 |
| CCOC(=O)c1cc(-c2ccco2)nc2c1c(C)nn2CCC#N | Voltage-gated potassium channel subunit beta-2 (Rattus norvegicus) (UniProt P62483) | -0.214 |
| Cc1cc(C(F)(F)F)c2c(C)nn(CCc3nn[nH]n3)c2n1 | Voltage-gated potassium channel subunit beta-2 (Rattus norvegicus) (UniProt P62483) | -0.368 |
| Cn1c(COc2ccccc2)nnc1SCC(=O)Nc1ccc(N2CCOCC2)c(Cl)c1 | Voltage-gated potassium channel subunit beta-2 (Rattus norvegicus) (UniProt P62483) | -0.477 |
| CS(=O)(=O)N1CCCC(C(=O)NCCCN2CCc3ccccc3C2)C1 (configuration not stated) | Voltage-gated potassium channel subunit beta-2 (Rattus norvegicus) (UniProt P62483) | -0.54 |
| COCCNC(=O)c1ccc(CS(=O)(=O)c2c(Cl)cccc2Cl)o1 | Voltage-gated potassium channel subunit beta-2 (Rattus norvegicus) (UniProt P62483) | -0.428 |
| C1CCN=C(Nc2nc3c(s2)CCCC3)CC1 | Voltage-gated potassium channel subunit beta-2 (Rattus norvegicus) (UniProt P62483) | -0.413 |
| O=C1NC(c2ccco2)Nc2ccccc21 (configuration not stated) | Voltage-gated potassium channel subunit beta-2 (Rattus norvegicus) (UniProt P62483) | -0.344 |
| CCOC(=O)C1CCN(C(=O)CN(c2ccc(Cl)c(C(F)(F)F)c2)S(C)(=O)=O)CC1 | Voltage-gated potassium channel subunit beta-2 (Rattus norvegicus) (UniProt P62483) | -0.453 |
| CCSc1nc2ccccc2n1CCC(=O)O | Voltage-gated potassium channel subunit beta-2 (Rattus norvegicus) (UniProt P62483) | -0.49 |
| CC(=O)N1CCc2cc(S(=O)(=O)CCC(=O)Nc3cccc(F)c3)ccc21 | Voltage-gated potassium channel subunit beta-2 (Rattus norvegicus) (UniProt P62483) | -0.369 |
